System: HEK-293T
Assay: Incucyte cell viability with HEK293T; further: filed as whole numbers so only -1 and 0 and 1 occur
Type: toxicity, cell-based
Conditions: human, 0 h, 10 µM, compound concentration 10 uM, replicate number 1, timepoint 0 hours
outcomeMeasure: Growth Rate
One number for each entry.

Example cases with answers are listed next.
{"compound": "CCCCN(CCCC)C(=O)CN1C[C@@H](c2cc(OC)c3c(c2)OCO3)[C@H](C(=O)O)[C@H]1CC(C)(C)CCC.Cl", "outcomeMeasure": "Growth Rate", "reported": 0}
{"compound": "CNc1nc(-c2ccc3c(N)n[nH]c3c2)cc(N2C[C@@H](C(=O)NC3CCCCC3)CC[C@H]2C)n1", "outcomeMeasure": "Growth Rate", "reported": 0}
{"compound": "CO[C@H]1/C=C/O[C@@]2(C)Oc3c(C)c(O)c4c(O)c(c(/C=N/N5CCN(C)CC5)c(O)c4c3C2=O)NC(=O)/C(C)=C\\C=C\\[C@H](C)[C@H](O)[C@@H](C)[C@@H](O)[C@@H](C)[C@H](OC(C)=O)[C@@H]1C", "outcomeMeasure": "Growth Rate", "reported": 0}
{"compound": "CN(C)CCOc1ccc(-c2nc(-c3ccncc3)c(-c3ccc4c(c3)CC/C4=N\\O)[nH]2)cc1", "outcomeMeasure": "Growth Rate", "reported": 1}
{"compound": "CCCCc1nc(Cl)c(CO)n1Cc1ccc(-c2ccccc2-c2nn[nH]n2)cc1", "outcomeMeasure": "Growth Rate", "reported": 0}

For every listed record, write down its Growth Rate.
1. CC(=O)[C@@]1(O)CC[C@H]2[C@@H]3C[C@H](C)C4=CC(=O)CC[C@]4(C)[C@H]3CC[C@@]21C
2. COc1ccc(/C=C/CCCCOc2ccc(C(=O)c3cccc(C(=O)O)c3)cc2CCC(=O)O)cc1
3. Cc1cc(C)cc(C(=O)N(C)[C@H](Cc2ccc(-c3ccccc3)cc2)C(=O)N[C@@H](Cc2c[nH]c3ccccc23)C(=O)O)c1
4. CCc1cc2c(c(CC)n1)CCC(=O)N2Cc1ccc(-c2ccccc2-c2nnn[nH]2)cc1.Cl
5. Cc1cc(SCc2sc(-c3ccc(C(F)(F)F)c(F)c3)nc2C)ccc1OCC(=O)O
6. C[C@@H]1CN(c2cc(-c3nn(C)c4ccc(OC5(C)CC5)cc34)ncn2)C[C@H](C)O1
7. CCc1cc2c(cc1CC)CC(NC[C@H](O)c1ccc(O)c3[nH]c(=O)ccc13)C2
8. O=C(NCc1ccc(F)cc1)C1CCN(S(=O)(=O)c2cc(Cl)cc(Cl)c2)CC1

Data returned:
[1, 1, 1, 0, 0, 0, 0, 0]
